These entries and their values trace back to paper PMC12040169.

Listed here are compounds together with their documented viability at 28.5 h, 10 µM.
# test-description: in vitro
# condition-description: human, hela cells, % viability
Respond numerically; units are % and should not be typed.

O=C1COc2ccc(S(=O)(=O)NCCOc3ccccc3)cc2N1
95.9
CC(C)(Oc1ccc(Cl)cc1)C(=O)NCCc1ccc(S(N)(=O)=O)cc1
107

# ---- query compound ----
Please fill in: viability at 28.5 h, 10 µM reported for Cc1nn(C)c(C)c1CCNC(=O)CC1CCCCN1C (stereo not drawn) = 97.6

----------
Listed here are molecules together with their documented viability at 28.5 h, 10 µM.
# test-description: in vitro
# condition-description: human, hela cells, % viability
Respond numerically; units are % and should not be typed.

Observe how each entry below is paired with its result.
CN(C)CC(C)(C)CNC(=O)c1cc(C(=O)c2ccc(Cl)cc2Cl)c[nH]1 [CBK107416]
94.8
CCN(CC)c1ccc(C(=O)Cn2c(=O)n(C(=O)CCCc3ccc(OC)cc3)c3ccccc32)cc1 [CBK106503]
89.6
COc1ccccc1C(=O)NCC(=O)N/N=C/c1ccc(N(C)C)cc1 [CBK261989]
104
COc1ccc(-c2cc(C(=O)NCC(O)c3ccc4ccccc4c3)cnc2-c2ccccc2)cn1 (stereo not shown) [CBK037562]
103
Cc1c(-n2nnnc2SC(C)c2ccccc2)c(=O)n(-c2ccccc2)n1C (stereo not shown) [CBK295651]
92.9

Please fill in: viability at 28.5 h, 10 µM reported for CCCc1n[nH]c(-c2cccc(C)c2C)c1C(=O)OCC [CBK113545] = 106

Please fill in: viability at 28.5 h, 10 µM reported for O=S(=O)(NC[C@H]1C[C@@H]2CCN1C[C@@H]2CN1CCOCC1)c1ccccc1 [CBK288760] = 92.9

Please fill in: viability at 28.5 h, 10 µM reported for Cn1cnnc1SCCNC(=O)N1CCCN(Cc2cccs2)CC1 [CBK307485] = 94

Please fill in: viability at 28.5 h, 10 µM reported for CCN(CC)C(=O)C1CCCN(C(=O)NCCN2CCOCC2)C1 (stereo not shown) [CBK156128] = 96.1

Please fill in: viability at 28.5 h, 10 µM reported for O=C(N[C@H]1CO[C@H]2[C@@H]1OC[C@@H]2n1cc(-c2ccccc2)nn1)N1CCOCC1 [CBK289503] = 87.7

Please fill in: viability at 28.5 h, 10 µM reported for O=C(NC1CCCCC1)[C@H]1C=CCN1C(=O)c1ccc(F)cc1F [CBK282311] = 95

Please fill in: viability at 28.5 h, 10 µM reported for Cc1cc(NC(=O)Cc2ccccc2)nc2c1c(=O)oc1ccccc12 [CBK291127] = 102

Please fill in: viability at 28.5 h, 10 µM reported for CC(C)[C@H]1SC(NC[C@H](C)c2ccccc2)=NC1=O [CBK074034] = 93.6

Please fill in: viability at 28.5 h, 10 µM reported for O=C(Nc1ncccc1O)c1c(O)c2ccccc2n(Cc2ccccc2)c1=O [CBK291211] = 103

Please fill in: viability at 28.5 h, 10 µM reported for CC(=O)N1CC[C@H](c2nc3ccc(C#N)cc3[nH]2)C1 [CBK289378] = 108

Please fill in: viability at 28.5 h, 10 µM reported for CN1CCN(c2cccc(-c3ccccc3Oc3ccccc3)n2)CC1 [CBK037598] = 101

Please fill in: viability at 28.5 h, 10 µM reported for Cc1ccc(Nc2cc(-c3cccc4oc5ccccc5c34)ncn2)cc1NS(C)(=O)=O [CBK091150] = 93.6

----------
# test-description: in vitro
# condition-description: human, hela cells, % viability
Listed here are molecules together with their documented viability at 28.5 h, 10 µM.
Respond numerically; units are % and should not be typed.

Observe how each entry below is paired with its result.
Nc1ncc(-c2ccoc2)nc1N1CCN(CCO)CC1 [CBK063428]
98.8
Cc1noc(C)c1NC(=O)c1ccc2ncccc2c1 [CBK200308]
104
COC(=O)c1ccc(-c2cc3ccccc3o2)nc1 [CBK149228T]
85.9
Cc1ncc([N+](=O)[O-])n1Cc1nnc(S)n1C [CBK267873]
95.4
O=C1CN(C(=O)Nc2ccc(Cl)cc2)CCN1 [CBK155861]
81.3

Please fill in: viability at 28.5 h, 10 µM reported for Cc1ccc(Oc2ccc(C(F)(F)F)cc2[N+](=O)[O-])c(Br)c1 [CBK002817] = 93.1

Please fill in: viability at 28.5 h, 10 µM reported for C#CCNC(=O)CC[C@H]1CNC(=O)[C@@H]2[C@@H](CCN2Cc2ccc(O)cc2)N1C [CBK289017] = 94

Please fill in: viability at 28.5 h, 10 µM reported for Cc1nc(O)cc(C2CCN(C(=O)c3scc4c3CCCC4)CC2)n1 [CBK307452] = 85.9

Please fill in: viability at 28.5 h, 10 µM reported for COc1ccc(Oc2c(C)n[nH]c2-c2ccc(O)cc2O)cc1 [CBK288239] = 96

Please fill in: viability at 28.5 h, 10 µM reported for COc1ccc(-c2cc3nnc(C)nc3s2)cc1 [CBK025638] = 107

Please fill in: viability at 28.5 h, 10 µM reported for Nc1ncc(-c2cccc(F)c2)nc1Nc1ccc2[nH]ccc2c1 [CBK063851] = 95.1

Please fill in: viability at 28.5 h, 10 µM reported for Cc1cccc(-n2ncc3c(=O)n(CC(=O)Nc4ccccc4)cnc32)c1C [CBK287693] = 95.1

----------
# test-description: in vitro
# condition-description: human, hela cells, % viability
readout: viability at 28.5 h, 10 µM (%)
Respond numerically; units are % and should not be typed.

c1ccc(-c2csc3ncnc(-n4cnc5ccccc54)c23)cc1 [CBK264494]
109
Cc1occc1-c1nn(CCN2CCCCC2)c(=O)o1 [CBK283815]
96.8
Cc1ccc2c(c1)CN(C(=O)C1CC1C)CC1(CCN(C)CC1)O2 (stereo not shown) [CBK284833]
94.5

Please fill in: viability at 28.5 h, 10 µM reported for O=C(O)CCSc1cccc(C(F)(F)F)c1 [CBK012986] = 111

Please fill in: viability at 28.5 h, 10 µM reported for O=C(O)COCC(=O)N1CCN(CCc2ccccc2)CC1 [CBK270298] = 107

Please fill in: viability at 28.5 h, 10 µM reported for Cn1ccnc1C1(O)CC2CCC(C1)N2C(=O)c1ccco1 (stereo not shown) [CBK284179] = 81.7

----------
# test-description: in vitro
# condition-description: human, hela cells, % viability
Listed here are compounds together with their documented viability at 28.5 h, 10 µM.
Respond numerically; units are % and should not be typed.

OC1(c2ccccc2)CCN(Cc2ccccc2-n2cccn2)C1 (stereo not shown)
96.5
Cc1nc2nc(N)nn2c(C)c1CCC(=O)OCc1cccc(C#N)c1
88.1
Cc1nn(Cc2ccccc2)c(C)c1NC(=O)CSc1nc2sc3c(c2c(=O)n1C)CCC3
96.4
CS(=O)(=O)c1ccc2ncnc(NCC(CO)Cc3ccccn3)c2c1 (stereo not shown)
88.7

Please fill in: viability at 28.5 h, 10 µM reported for `CCOC(=O)N1CCC(NS(=O)(=O)c2ccc(Oc3ccccc3)cc2)CC1` = 98.4

Please fill in: viability at 28.5 h, 10 µM reported for CC1CN(C(=O)OC(C)(C)C)CCN1 (stereo not shown) [CBK000069C] = 100

Please fill in: viability at 28.5 h, 10 µM reported for `Cc1ccc(Nc2cc(-c3ccsc3)ncn2)cc1NS(C)(=O)=O` = 97.9

----------
# test-description: in vitro
# condition-description: human, hela cells, % viability
Listed here are compounds together with their documented viability at 28.5 h, 10 µM.
Respond numerically; units are % and should not be typed.

Please fill in: viability at 28.5 h, 10 µM reported for `Cn1c(=O)[nH]c(=O)c2c1nc(CN1CCOCC1)n2CCc1ccccc1` = 88

Please fill in: viability at 28.5 h, 10 µM reported for CC(C)Cn1c(-c2ccc(F)cc2)cnc1SC(C)C(=O)NC(N)=O (stereo not drawn) = 91.9

Please fill in: viability at 28.5 h, 10 µM reported for Cn1cc(C(=O)Nc2c(F)cc(F)cc2OC2CCNCC2)c2ccccc21 [CBK050328T] = 89.1

Please fill in: viability at 28.5 h, 10 µM reported for `COCCn1c(SCc2cn3c(C)cc(C)nc3n2)nc(C)c1C` = 89.3

Please fill in: viability at 28.5 h, 10 µM reported for COc1cccc(CS(=O)(=O)c2c(Br)sc3ccnc(N4CCNCC4)c23)c1 [CBK038956C] = 95.1

Please fill in: viability at 28.5 h, 10 µM reported for `COc1cc2cc3c(N)c(C(=O)NCc4cccs4)sc3nc2cc1OC` = 92

Please fill in: viability at 28.5 h, 10 µM reported for `CN1CCN(c2ccc(-c3cccc(N(C)C)c3)cn2)CC1` = 102

Please fill in: viability at 28.5 h, 10 µM reported for CC(C)c1cc(C(=O)NC2CCOc3ccccc32)no1 (stereo not drawn) = 93.9

Please fill in: viability at 28.5 h, 10 µM reported for Cc1cc2c(cc1C)NC(CC(=O)Nc1cccc(Br)c1)C(=O)N2 (stereo not drawn) = 73.3
